These data points were gathered from BindingDB's records for doi:10.1016/j.bmcl.2007.10.100.

- measurement.notes: Induction of human IkappaBalpha stabilization in OCI-Ly3 cells assessed as ratio of green light emiting IkappaBalpha-fused luciferase expression to red light emiting native luciferase expression
Exercise: state measured EC50 for each of the compounds provided.
Answers are plain numbers, in µM.

O=S1(=O)Nc2c(ccc3cccnc23)-c2cc(Cl)ccc21: 11
Nc1ccccc1S(=O)(=O)Nc1cccc2cccnc12: 8.5
O=[N+]([O-])c1ccc(S(=O)(=O)Nc2cccc3cccnc23)cc1: 17
O=S1(=O)Nc2c(ccc3cccnc23)-c2ccccc21: 2.6
COc1cc(NS(=O)(=O)c2ccc(C)cc2[N+](=O)[O-])c2ncccc2c1: 7.6

Let us move to another entry and its EC50.
Query: Query EC50 for `Cc1ccc2cccc(NS(=O)(=O)c3ccccc3N)c2n1`
Reply: 8

---

- measurement.notes: Induction of human IkappaBalpha stabilization in OCI-Ly3 cells assessed as ratio of green light emiting IkappaBalpha-fused luciferase expression to red light emiting native luciferase expression
readout: EC50 (µM)
Give bare numbers, in µM.

COc1cc(NS(=O)(=O)c2ccc(C)cc2N)c2ncccc2c1: 4
O=S1(=O)Nc2c(ccc3cccnc23)-c2cc(C(F)(F)F)ccc21: 1
Cc1ccc2cccc(NS(=O)(=O)c3ccc(Br)s3)c2n1: 6.4

Provide the reported EC50 of each entry below, same order.
1. COc1ccc2c(c1)-c1ccc3ccc(C)nc3c1NS2(=O)=O
2. Cc1cnc2c3c(ccc2c1)-c1ccccc1S(=O)(=O)N3

Reply:
[3.4, 10]

---

Consider the following compounds; for each one, report its EC50.
- measurement.notes: Induction of human IkappaBalpha stabilization in OCI-Ly3 cells by green light emiting IkappaBalpha-fused luciferase reporter gene assay
Numbers only, in µM.

These solved cases illustrate the format of a correct answer.
Cc1ccc2cccc(NS(=O)(=O)c3cccc([N+](=O)[O-])c3)c2n1: 6
O=S1(=O)Nc2c(ccc3cccnc23)-c2cc(C(F)(F)F)ccc21: 0.7
O=[N+]([O-])c1ccc(S(=O)(=O)Nc2cccc3cccnc23)cc1: 6.5
O=S(=O)(Nc1cccc2cccnc12)c1ccc(Cl)s1: 2.7
Nc1ccccc1S(=O)(=O)Nc1cccc2cccnc12: 11
Cc1cnc2c3c(ccc2c1)-c1ccccc1S(=O)(=O)N3: 7

Look at each compound and report its EC50.
1. COc1cc2cccnc2c2c1-c1cc(C)ccc1S(=O)(=O)N2
2. Cc1ccc2cccc(NS(=O)(=O)c3ccccc3[N+](=O)[O-])c2n1

Reply:
1: 1.3; 2: 6.8

Could I get EC50 for every one of these entries?
1. O=S1(=O)Nc2c(ccc3cccnc23)-c2cc(Cl)ccc21
2. Cc1ccc2cccc(NS(=O)(=O)c3ccc(Cl)s3)c2n1

Reply:
[1.1, 1.4]
